# measured.on: Interstitial collagenase (Homo sapiens, UniProt P03956)
# Sequence (P03956 whole entry): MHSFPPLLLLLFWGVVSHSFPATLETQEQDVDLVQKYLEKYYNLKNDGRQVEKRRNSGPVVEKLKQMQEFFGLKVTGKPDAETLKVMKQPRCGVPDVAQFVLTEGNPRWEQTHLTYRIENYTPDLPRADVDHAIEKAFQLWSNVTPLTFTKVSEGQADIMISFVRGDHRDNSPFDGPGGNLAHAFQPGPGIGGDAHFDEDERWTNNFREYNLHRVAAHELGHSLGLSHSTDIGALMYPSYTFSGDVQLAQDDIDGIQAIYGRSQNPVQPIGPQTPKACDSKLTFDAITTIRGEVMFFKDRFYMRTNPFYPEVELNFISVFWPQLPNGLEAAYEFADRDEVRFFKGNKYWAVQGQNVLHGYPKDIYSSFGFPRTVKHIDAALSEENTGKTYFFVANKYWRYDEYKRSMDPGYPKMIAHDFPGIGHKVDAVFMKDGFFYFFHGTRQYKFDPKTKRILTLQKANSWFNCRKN
# experiment.description: Inhibitory activity towards human recombinant fibroblast collagenase
metric: IC50 (µM)

In the examples that follow, each entry is paired with its recorded IC50.
smiles.repr | measured.result
O=C(C[C@@H](CC1CCCCC1)C(=O)N[C@@H](Cc1ccccc1)C(=O)NCc1ccccc1)NO | 4.6
CC(C)C[C@H](CC(=O)NO)C(=O)N[C@@H](Cc1ccccc1)C(=O)NCc1ccccc1 | 0.03
O=C(C[C@@H](Cc1ccccc1)C(=O)N[C@@H](Cc1ccccc1)C(=O)NCc1ccccc1)NO | 7
O=C(C[C@H](C(=O)N[C@@H](Cc1ccccc1)C(=O)NCc1ccccc1)C1CCCCC1)NO | 1.5

a = CC(C)S[C@H](CC(=O)NO)C(=O)N[C@@H](Cc1ccccc1)C(=O)NCc1ccccc1
b = O=C(C[C@H](C(=O)N[C@@H](Cc1ccccc1)C(=O)NCc1ccccc1)c1ccccc1)NO
c = O=C(C[C@@H](CCc1ccccc1)C(=O)N[C@@H](Cc1ccccc1)C(=O)NCc1ccccc1)NO
d = O=C(C[C@@H](CC1CCCC1)C(=O)N[C@@H](Cc1ccccc1)C(=O)NCc1ccccc1)NO
Data request: Rank the 4 molecules: largest IC50 first, smallest last. Lab note: record answer as labels in requested order.
Data returned: b, c, a, d

The origin of these recorded values is ChEMBL document CHEMBL1131284.
